target: UniProtKB P08908; test: Agonist activity at human 5HT1A receptor expressed in C6 cells assessed as stimulation of [35S]GTPgammaS binding
Sequence (P08908 whole entry): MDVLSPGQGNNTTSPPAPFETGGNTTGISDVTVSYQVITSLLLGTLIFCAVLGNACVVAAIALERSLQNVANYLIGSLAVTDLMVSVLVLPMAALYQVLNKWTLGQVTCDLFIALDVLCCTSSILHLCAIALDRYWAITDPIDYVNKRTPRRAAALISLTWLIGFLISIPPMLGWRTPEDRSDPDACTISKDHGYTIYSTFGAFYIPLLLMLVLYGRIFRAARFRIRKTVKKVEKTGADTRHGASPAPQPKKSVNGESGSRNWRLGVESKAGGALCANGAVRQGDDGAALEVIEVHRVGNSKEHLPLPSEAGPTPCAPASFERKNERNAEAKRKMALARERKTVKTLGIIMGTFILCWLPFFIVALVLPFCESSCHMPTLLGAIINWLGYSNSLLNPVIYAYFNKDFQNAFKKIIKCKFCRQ
Strictly below 90 nM in EC50: Condition met. Otherwise: Condition not met.

// query Please state whether EC50 is below 90 nM for `O=C(c1ccc(F)c(Cl)c1)N1CCC(F)(CNCc2ccc(Cl)cn2)CC1`
// result Condition met

// query Determine whether this compound shows EC50 lower than 90 nM (ties excluded): `CC(=O)Nc1cccc(N2CCN(CCCCNS(=O)(=O)CC3CCCCC3)CC2)c1`
// result Condition not met

// query In plain terms, does `CNc1nc(CNCC2(F)CCN(C(=O)c3ccc(F)c(Cl)c3)CC2)ncc1C` come in under 90 nM for EC50?
// result Condition met

// query # strict comparison: is reported EC50 < 90 nM? input = `O=C(c1ccc(F)c(Cl)c1)N1CCC(F)(CNCc2ncc(Cl)cn2)CC1`
// result Condition not met
